Origin of the recorded values: patent US20260242735A1

Target: human CD33 S323A (human, UniProt P20138 18-364)
Sequence (P20138 18-364 S323A limits assumed): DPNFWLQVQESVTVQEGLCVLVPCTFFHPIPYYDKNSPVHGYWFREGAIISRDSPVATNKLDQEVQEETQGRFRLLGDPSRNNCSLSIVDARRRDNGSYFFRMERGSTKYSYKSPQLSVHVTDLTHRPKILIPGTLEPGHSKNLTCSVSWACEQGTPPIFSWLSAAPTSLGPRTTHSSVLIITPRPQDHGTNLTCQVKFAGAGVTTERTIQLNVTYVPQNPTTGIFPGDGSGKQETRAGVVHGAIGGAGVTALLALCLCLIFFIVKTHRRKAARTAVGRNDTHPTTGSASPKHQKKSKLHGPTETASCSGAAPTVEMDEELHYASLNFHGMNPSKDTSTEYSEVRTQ
Assay: flow cytometry, alanine scan
readout-kind: Mean % WT Binding

Incoming: Please look up its Mean % WT Binding: Refmab #2 (antibody, V domains shown, The alanine scan used IgG or Fab) VH: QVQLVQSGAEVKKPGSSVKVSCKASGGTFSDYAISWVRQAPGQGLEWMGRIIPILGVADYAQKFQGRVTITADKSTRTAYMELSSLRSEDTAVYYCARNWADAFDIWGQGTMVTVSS VL: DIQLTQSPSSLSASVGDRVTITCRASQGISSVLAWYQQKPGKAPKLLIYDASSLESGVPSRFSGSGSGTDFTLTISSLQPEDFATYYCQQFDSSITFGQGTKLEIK
Outgoing: 119 % of WT
